target: T1, Dimeric fibrinogen-like domain of mouse (Mus musculus) Ang-2 conjugated to human IgG1 (mouse (Mus musculus)); test: SPR, hIgG1 antibody captured, room temp
T1 construct: also called Dimeric Mouse Ang-2FD; Mouse Ang-2FD-hFc
T1 sequence (chain, as listed by the source limits assumed): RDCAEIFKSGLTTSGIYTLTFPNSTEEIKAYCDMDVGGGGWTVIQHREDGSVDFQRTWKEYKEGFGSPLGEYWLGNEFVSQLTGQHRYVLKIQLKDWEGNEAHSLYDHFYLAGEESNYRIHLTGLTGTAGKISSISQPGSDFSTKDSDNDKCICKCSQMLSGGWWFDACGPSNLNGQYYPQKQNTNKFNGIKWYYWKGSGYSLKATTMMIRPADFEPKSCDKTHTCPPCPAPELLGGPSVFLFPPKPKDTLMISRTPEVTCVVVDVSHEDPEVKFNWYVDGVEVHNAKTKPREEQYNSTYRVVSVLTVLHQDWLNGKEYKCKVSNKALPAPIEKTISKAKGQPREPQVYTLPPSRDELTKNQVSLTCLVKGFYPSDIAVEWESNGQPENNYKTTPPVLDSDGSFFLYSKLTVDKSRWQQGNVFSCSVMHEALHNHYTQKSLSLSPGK
I'd be grateful if you could share measured pKd for these entries.
# pKd is unitless: minus log10 of the molar concentration; print number only

Inquiry: May I ask what pKd has been recorded for H1H690P (antibody, V domains shown) VH: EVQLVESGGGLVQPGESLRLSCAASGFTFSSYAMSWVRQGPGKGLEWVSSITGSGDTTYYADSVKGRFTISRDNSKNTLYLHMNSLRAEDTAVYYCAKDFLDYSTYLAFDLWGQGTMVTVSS VL: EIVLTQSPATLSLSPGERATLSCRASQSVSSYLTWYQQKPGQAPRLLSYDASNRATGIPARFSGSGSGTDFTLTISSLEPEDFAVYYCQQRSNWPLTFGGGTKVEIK ?
Reply text: 10.04

Inquiry: May I ask what pKd has been recorded for H1H742N (antibody, V domains shown) VH: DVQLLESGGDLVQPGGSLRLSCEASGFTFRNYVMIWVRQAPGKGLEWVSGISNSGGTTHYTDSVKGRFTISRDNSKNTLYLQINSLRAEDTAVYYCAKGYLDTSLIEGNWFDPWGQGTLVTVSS VL: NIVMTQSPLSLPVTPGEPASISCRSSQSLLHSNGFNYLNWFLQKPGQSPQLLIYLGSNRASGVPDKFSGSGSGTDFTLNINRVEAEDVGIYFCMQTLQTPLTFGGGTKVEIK ?
Reply text: 9.56

Inquiry: May I ask what pKd has been recorded for H1H693P (antibody, V domains shown) VH: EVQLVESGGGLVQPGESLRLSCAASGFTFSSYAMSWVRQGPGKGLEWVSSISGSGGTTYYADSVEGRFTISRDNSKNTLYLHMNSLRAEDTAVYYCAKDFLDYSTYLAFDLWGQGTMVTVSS VL: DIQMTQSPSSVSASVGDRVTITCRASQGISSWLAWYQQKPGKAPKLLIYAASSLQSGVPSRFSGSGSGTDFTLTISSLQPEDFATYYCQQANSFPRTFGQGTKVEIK ?
Reply text: 9.35

Inquiry: May I ask what pKd has been recorded for H1H728N (antibody, V domains shown) VH: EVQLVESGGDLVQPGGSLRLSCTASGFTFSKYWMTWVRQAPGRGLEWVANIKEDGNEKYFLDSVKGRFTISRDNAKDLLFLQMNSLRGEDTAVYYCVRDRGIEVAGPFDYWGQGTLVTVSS VL: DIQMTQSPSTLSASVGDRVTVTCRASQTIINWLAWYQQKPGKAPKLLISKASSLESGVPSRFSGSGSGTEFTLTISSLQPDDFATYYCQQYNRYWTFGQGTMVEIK ?
Reply text: 8.24

Inquiry: May I ask what pKd has been recorded for H1H704P (antibody, V domains shown) VH: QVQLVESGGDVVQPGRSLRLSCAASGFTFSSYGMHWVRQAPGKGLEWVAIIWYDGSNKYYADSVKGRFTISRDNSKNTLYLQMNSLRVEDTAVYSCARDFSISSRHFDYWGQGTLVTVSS VL: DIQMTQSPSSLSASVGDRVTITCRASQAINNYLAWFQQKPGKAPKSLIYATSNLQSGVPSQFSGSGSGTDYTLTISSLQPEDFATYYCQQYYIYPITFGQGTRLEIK ?
Reply text: 9.32

Inquiry: May I ask what pKd has been recorded for H1H743N (antibody, V domains shown) VH: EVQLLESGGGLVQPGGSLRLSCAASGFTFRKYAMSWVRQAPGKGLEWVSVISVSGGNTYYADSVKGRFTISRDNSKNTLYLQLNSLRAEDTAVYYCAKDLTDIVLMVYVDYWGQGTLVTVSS VL: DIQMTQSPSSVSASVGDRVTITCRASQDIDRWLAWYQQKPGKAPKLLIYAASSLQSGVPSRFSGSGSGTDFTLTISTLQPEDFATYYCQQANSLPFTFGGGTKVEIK ?
Reply text: 9.91

Taken from patent US20150147342A1.
